- Test system: human SMAD7 mRNA
- test_description: Antisense inhibition of human SMAD7 mRNA expression in Hep3B cells by 3-10-3 cEt gapmers, 10,000 nM, electroporation (Example 2)
- Type: cell-based
- test_parameters: SMAD7 mRNA, Hep3B cells, 10,000 nM antisense oligonucleotide, electroporation, approximately 24 hours, primer probe set RTS5062, relative to untreated control cells
Strand notation (5' to 3'): a small letter for the sugar, then the base; units joined by * are phosphorothioate-linked, units joined directly phosphodiester-linked; [ ] holds rarer units or linkages, { } end groups; capitals alone tell only the bases. k = constrained ethyl (cEt); [5mC] = 5-methylcytosine; d = 2'-deoxy (DNA)
Label rule, in plain words: % Inhibition of 30% and up is Met, under 30% is Not met.

substance="829720 (antisense kG*k[5mC]*kG*d[5mC]*d[5mC]*dA*dG*dT*d[5mC]*dT*d[5mC]*d[5mC]*d[5mC]*kG*kG*kA) [compound 829720]" experimental_target="human SMAD7 mRNA" cat="Not met"
substance="772540 (antisense kA*kG*kG*d[5mC]*dG*dA*dG*dG*dA*dG*dA*dA*dA*kA*kG*kT) [compound 772540]" experimental_target="human SMAD7 mRNA" cat="Not met"
substance="772551 (antisense kT*kT*k[5mC]*dA*dG*dA*dT*d[5mC]*d[5mC]*dG*d[5mC]*d[5mC]*dT*k[5mC]*kG*kG) [compound 772551]" experimental_target="human SMAD7 mRNA" cat=Met
substance="790637 (kA*k[5mC]*k[5mC]*dT*dA*dG*dT*dT*d[5mC]*dG*d[5mC]*dA*dG*kA*kG*kT; antisense) [compound 790637]" experimental_target="human SMAD7 mRNA" cat="Not met"
substance="829750 (antisense k[5mC]*kG*kT*d[5mC]*d[5mC]*dT*d[5mC]*dG*d[5mC]*d[5mC]*dG*d[5mC]*d[5mC]*kG*kG*kG) [compound 829750]" experimental_target="human SMAD7 mRNA" cat=Met
substance="772735 (kA*kA*k[5mC]*dT*dG*dT*dT*dT*dG*dT*d[5mC]*dT*dT*kA*kG*k[5mC]; antisense) [compound 772735]" experimental_target="human SMAD7 mRNA" cat=Met
substance="790701 (kG*kG*kA*dT*dA*d[5mC]*dA*d[5mC]*dT*dT*dA*dA*dT*k[5mC]*kA*kA; antisense) [compound 790701]" experimental_target="human SMAD7 mRNA" cat=Met
